# EXPERIMENTAL_SYSTEM: Glucocorticoid receptor (Rattus norvegicus)
# TEST_SUMMARY: Repression of NF-kappaB-luciferase reporter activity in TPA stimulated U2OS cells expressing rat glucocorticoid receptor
# Type: functional, cell-based
pEC50: −log10 of the molar value.
ASSAY_READOUT: pEC50

Record excerpt, results attached:
> print(dat)
                                   molecule  assay.readout  result.number
1  C[C@]12Cc3cnn(-c4ccc(F)cc4)c3C=C1CCC[C@@H]2C(O)CCc1ccccc1 (stereo partly drawn)          pEC50           8.52
2  Cc1ccc(C(O)[C@H]2CCCC3=Cc4c(cnn4-c4ccc(F)cc4)C[C@@]32C)cc1 (stereo partly drawn)          pEC50           8.10
3  COc1cccc(C(O)[C@H]2CCCC3=Cc4c(cnn4-c4ccc(F)cc4)C[C@@]32C)c1 (stereo partly drawn)          pEC50           8.52

P. C[C@]12Cc3cnn(-c4ccc(F)cc4)c3C=C1CCC[C@@H]2C(O)c1ccc(O)cc1 (stereo partly drawn)
Q. C[C@]12Cc3cnn(-c4ccc(F)cc4)c3C=C1CCC[C@@H]2C(O)c1ccc(Cl)cc1 (stereo partly drawn)
R. C[C@]12Cc3cnn(-c4ccc(F)cc4)c3C=C1CCC[C@@H]2C(O)c1ccc(C(F)(F)F)cc1 (stereo partly drawn)
Task: Put the items in sequence by pEC50, from largest down. Response format: the labels, sorted as the prompt asks.
Output: Q, P, R
(Q: 8.40, P: 7.92, R: 7.62)

* * *

# EXPERIMENTAL_SYSTEM: Glucocorticoid receptor (Homo sapiens, UniProt P04150)
# TEST_SUMMARY: Binding affinity for recombinant human glucocorticoid receptor
ASSAY_READOUT: pIC50
Give only the number. pIC50 is defined as minus log10 of concentration in molar units.

> print(dat)
                                   molecule  assay.readout  result.number
1  CC12CCC(=O)C=C1CCCC2C(O)c1csc2ccccc12 (centres undefined)          pIC50           6.78
2  C[C@@H]1C[C@H]2C3CCC4=CC(=O)C=C[C@]4(C)[C@@]3(F)[C@@H](O)C[C@]2(C)[C@@]1(O)C(=O)O (some centres undefined)          pIC50           8.30

Task: What measured pIC50 goes with CC12CCC(=O)C=C1CCCC2C(O)c1ccccc1 (centres undefined) ?
Output: 5.68

* * *

# EXPERIMENTAL_SYSTEM: Glucocorticoid receptor (Rattus norvegicus, UniProt P06536)
# Sequence (P06536 whole entry): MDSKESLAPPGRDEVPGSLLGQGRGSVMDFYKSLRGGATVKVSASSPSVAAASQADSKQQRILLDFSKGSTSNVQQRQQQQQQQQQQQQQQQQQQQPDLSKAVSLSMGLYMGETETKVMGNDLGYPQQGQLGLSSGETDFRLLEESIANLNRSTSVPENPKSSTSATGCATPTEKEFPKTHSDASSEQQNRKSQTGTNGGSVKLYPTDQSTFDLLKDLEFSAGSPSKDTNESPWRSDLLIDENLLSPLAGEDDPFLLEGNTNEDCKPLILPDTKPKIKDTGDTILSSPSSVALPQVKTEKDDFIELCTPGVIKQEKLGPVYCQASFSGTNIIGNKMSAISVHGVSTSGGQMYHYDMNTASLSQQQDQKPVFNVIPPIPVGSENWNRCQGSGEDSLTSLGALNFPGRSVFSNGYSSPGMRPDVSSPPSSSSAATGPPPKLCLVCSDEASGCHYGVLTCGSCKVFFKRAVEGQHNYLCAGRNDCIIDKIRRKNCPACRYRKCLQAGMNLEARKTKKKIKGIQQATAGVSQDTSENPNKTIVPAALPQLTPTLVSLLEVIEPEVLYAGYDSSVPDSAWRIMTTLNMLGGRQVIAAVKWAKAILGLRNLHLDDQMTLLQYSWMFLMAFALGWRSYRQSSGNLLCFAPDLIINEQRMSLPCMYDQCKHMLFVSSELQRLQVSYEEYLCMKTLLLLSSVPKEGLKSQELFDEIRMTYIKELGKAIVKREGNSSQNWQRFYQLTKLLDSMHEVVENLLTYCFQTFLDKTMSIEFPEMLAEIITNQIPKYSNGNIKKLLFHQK
# TEST_SUMMARY: Effective concentration against MMTV in transactivation assay in U2OS cells expressing rat GR
# Type: functional, cell-based
ASSAY_READOUT: EC50 (nM)

> print(dat)
                                   molecule  result.number
1  C[C@]12Cc3cnn(-c4ccc(F)cc4)c3C=C1CCC[C@@H]2C(O)CCc1ccccc1 (some centres undefined)             11

a. C[C@]12Cc3cnn(-c4ccc(F)cc4)c3C=C1CCC[C@@H]2C(O)Cc1ccccc1 (some centres undefined)
b. Cc1ccc(C(O)[C@H]2CCCC3=Cc4c(cnn4-c4ccc(F)cc4)C[C@@]32C)cc1 (some centres undefined)
c. C[C@]12Cc3cnn(-c4ccc(F)cc4)c3C=C1CCC[C@@H]2C(O)c1ccc(O)cc1 (some centres undefined)
Task: Put the items in sequence by EC50, from largest down. Response format: the labels, sorted as the prompt asks.
Output: c, a, b
(c: 20 nM, a: 9 nM, b: 4 nM)

a. CCCCC(O)[C@H]1CCCC2=Cc3c(cnn3-c3ccc(F)cc3)C[C@@]21C (some centres undefined)
b. C[C@]12Cc3cnn(-c4ccc(F)cc4)c3C=C1CCC[C@@H]2C(O)c1cccc(O)c1 (some centres undefined)
Task: Lab note: check whether a or b shows the higher recorded EC50. Give the chosen item's label as your response.
Output: a
(a: 5 nM, b: 3 nM)

* * *

# EXPERIMENTAL_SYSTEM: Glucocorticoid receptor (Homo sapiens)
# Sequence (P04150 whole entry): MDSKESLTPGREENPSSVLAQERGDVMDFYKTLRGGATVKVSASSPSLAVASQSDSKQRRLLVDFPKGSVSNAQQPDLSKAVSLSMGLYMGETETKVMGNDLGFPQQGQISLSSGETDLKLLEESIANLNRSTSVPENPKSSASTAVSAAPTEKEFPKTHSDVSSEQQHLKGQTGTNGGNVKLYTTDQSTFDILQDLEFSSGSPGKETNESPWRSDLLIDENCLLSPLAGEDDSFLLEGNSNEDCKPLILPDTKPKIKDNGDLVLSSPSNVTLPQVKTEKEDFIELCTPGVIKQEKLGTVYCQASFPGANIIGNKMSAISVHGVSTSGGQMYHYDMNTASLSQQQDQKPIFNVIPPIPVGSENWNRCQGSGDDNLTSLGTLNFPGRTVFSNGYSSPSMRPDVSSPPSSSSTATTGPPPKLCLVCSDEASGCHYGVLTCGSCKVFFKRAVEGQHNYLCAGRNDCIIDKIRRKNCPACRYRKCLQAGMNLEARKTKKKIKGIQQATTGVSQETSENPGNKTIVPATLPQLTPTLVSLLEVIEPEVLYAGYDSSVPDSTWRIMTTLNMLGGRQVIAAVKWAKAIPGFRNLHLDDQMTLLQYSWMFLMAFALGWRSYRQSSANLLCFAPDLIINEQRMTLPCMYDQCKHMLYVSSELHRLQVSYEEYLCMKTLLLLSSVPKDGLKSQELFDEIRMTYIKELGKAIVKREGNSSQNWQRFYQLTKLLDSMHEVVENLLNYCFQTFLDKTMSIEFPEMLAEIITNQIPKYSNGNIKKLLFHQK
# TEST_SUMMARY: Effective concentration in CV-1 cell transactivation assay
ASSAY_READOUT: pEC50
Give only the number. pEC50 is defined as minus log10 of concentration in molar units.

Task: What measured pEC50 goes with C[C@@H]1C[C@H]2C3CCC4=CC(=O)C=C[C@]4(C)[C@@]3(F)[C@@H](O)C[C@]2(C)[C@@]1(O)C(=O)O (stereo partly specified) ?
Output: 8.25

* * *

# EXPERIMENTAL_SYSTEM: Glucocorticoid receptor (Rattus norvegicus)
# TEST_SUMMARY: Repression of AP1-luciferase reporter activity in TPA-stimulated U2OS cells expressing rat glucocorticoid receptor
# Format: functional, cell-based
ASSAY_READOUT: EC50 (nM)

Record excerpt, results attached:
> print(dat)
                                   molecule  result.units  result.number
1  C[C@]12Cc3cnn(-c4ccc(F)cc4)c3C=C1CCC[C@@H]2C(O)c1ccccc1 (stereo not given in full)            nM              3
2  C[C@]12Cc3cnn(-c4ccc(F)cc4)c3C=C1CCC[C@@H]2C(O)c1cccc(O)c1 (stereo not given in full)            nM              3

P. C[C@]12Cc3cnn(-c4ccc(F)cc4)c3C=C1CCC[C@@H]2C(O)c1ccc(Cl)cc1 (stereo not given in full)
Q. C[C@]12Cc3cnn(-c4ccc(F)cc4)c3C=C1CCC[C@@H]2C(O)c1ccc(O)cc1 (stereo not given in full)
R. C[C@]12Cc3cnn(-c4ccc(F)cc4)c3C=C1CCC[C@@H]2C(O)c1ccc(C(F)(F)F)cc1 (stereo not given in full)
Task: Please list these in order of increasing EC50. Thank you! Response format: the labels, sorted as the prompt asks.
Output: P, Q, R

Data credit: ChEMBL document CHEMBL1137048
